# Test system: human skin
# test: Skin irritation test of active ingredient (patch method, CTFA guidelines)
# Assay type: in vivo
# assay-setup: content 1.0%; Equation 1
recorded-endpoint: Degree of irritation
Kindly provide the number alone.

Example compounds with recorded Degree of irritation:
# line-notation, target-of-assay, value-observed
data = [
    ("O=C(O)c1ccc(N2CCCN(c3ccc(C(=O)O)o3)CCN(c3ccc(C(=O)O)o3)CCCN(c3ccc(C(=O)O)o3)CC2)o1", "human skin", 0.05),
    ("O=C(O)c1ccc(N(CCN(CCN(c2ccc(C(=O)O)o2)c2ccc(C(=O)O)o2)c2ccc(C(=O)O)o2)CCN(c2ccc(C(=O)O)o2)c2ccc(C(=O)O)o2)o1", "human skin", 0.05),
    ("O=C(O)CN1CCCN(CC(=O)O)CCN(CC(=O)O)CCCN(CC(=O)O)CC1", "human skin", 0.10),
    ("O=C(O)c1ccc(N2CCN(c3ccc(C(=O)O)cc3)CCN(c3ccc(C(=O)O)cc3)CCN(c3ccc(C(=O)O)cc3)CC2)cc1", "human skin", 0.05),
    ("O=C(O)c1ccc(N2CCCN(c3ccc(C(=O)O)cc3)CCN(c3ccc(C(=O)O)cc3)CCCN(c3ccc(C(=O)O)cc3)CC2)cc1", "human skin", 0.05),
]

Input: // query Degree of irritation value for entry `O=C(O)CN(CCN(CCN(CC(=O)O)CC(=O)O)CC(=O)O)CCN(CC(=O)O)CC(=O)O`
Output: 0.20

Source listed as patent US11274268B2.
